tested on: Acinetobacter baumannii; experiment: Antibacterial activity against Acinetobacter baumannii NCTC 13423 assessed as reduction in bacterial growth incubated for 18 to 20 hrs by broth microdilution assay; type: functional; conditions: time 18-20 hrs
reportedProperty: MIC

INSERT INTO measurements (molecule, observedvalue) VALUES
  ('O=C(O)CC1CCc2c1[nH]c1ccc(OCc3ccc(C4CCCCC4)c(OC(F)(F)F)c3)cc21 (stereo not drawn)', '> 200 µM'),
  ('CS(=O)(=O)NC(=O)CC1CCc2c1[nH]c1ccc(OCc3ccc(C4CCCC4)c(C(F)(F)F)c3)cc21 (stereo not drawn)', '> 200 µM'),
  ('O=C(O)c1ccc(OCc2ccc(C3CCCC3)c(C(F)(F)F)c2)cn1', '> 200 µM'),
  ('O=C(O)C[C@H]1CCc2c1[nH]c1ccc(OCc3ccc(C4CCCC4)c(C(F)(F)F)c3)cc21 [ETRASIMOD]', '> 200 µM'),
  ('O=C(O)c1cc2cc(OCc3ccc(C4CCCCC4)c(C(F)(F)F)c3)ccc2[nH]1', '> 200 µM'),
  ('O=C(O)Cc1c[nH]c2ccc(OCc3ccc(C4CCCCC4)c(C(F)(F)F)c3)cc12', '> 200 µM'),
  ('O=C(O)CC1CCCc2c1[nH]c1ccc(OCc3ccc(C4CCCC4)c(C(F)(F)F)c3)cc21 (stereo not drawn)', '> 200 µM'),
  ('O=C(O)c1cc2cc(OCc3ccc(C4CCCC4)c(C(F)(F)F)c3)ccc2[nH]1', '> 200 µM');
